The following binders are listed with their measured ELISA signal (heat map) values.
# TARGET UNDER TEST: T1, L1 (DV1-GV4), soluble human Vδ1/Vγ4 γδ TCR heterodimer in leucine zipper format (human)
# T1 construct: Biotinylated in the DELFIA ranking; also called Antigen L1 (TRDV1/TRGV4); human DV1-GV4; not shown: gamma chain: Vγ4 (TRGV4) domain on a TCR constant region, leucine zipper, histidine tag
# T1 sequence (main, as listed by the source): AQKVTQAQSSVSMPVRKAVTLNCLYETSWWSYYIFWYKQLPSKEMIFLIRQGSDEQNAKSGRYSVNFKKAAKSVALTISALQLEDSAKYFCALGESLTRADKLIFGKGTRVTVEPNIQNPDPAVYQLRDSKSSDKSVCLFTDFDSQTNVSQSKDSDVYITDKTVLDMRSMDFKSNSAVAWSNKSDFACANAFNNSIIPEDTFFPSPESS
# MEASUREMENT PROTOCOL: DELFIA ELISA, human antigen; heat map cell of the clone
PARAMETER MEASURED: ELISA signal (heat map)

ADT1-7-10 (antibody, IgG1, V domains shown, IgG1) VH: EVQLVESGGGLVKPGGSLRLSCAASGFTFSDYYMSWIRQAPGKGLEWVSYISSSGSTIYYADSVKGRFTISRDNAKNSLYLQMNSLRAEDTAVYYCARDDYNDAFDIWGQGTLVTVSS VL: DIQMTQSPSSLSASVGDRVTIACRAGQSIGTYLNWYQQKPGKAPKLLIYVASSLQSGVPSRFSGSGSGTEFTLTISSLQPEDFATYYCQQTASTLLTFGRGTKVEIK :: 30900
ADT1-7-18 (antibody, IgG1, V domains shown, IgG1) VH: EVQLVESGGGLVKPGGSLRLSCAASGFTFSDYYMSWIRQAPGKGLEWVSYISSSGSTIYYADSVKGRFTISRDNAKNSLYLQMNSLRAEDTAVYYCARVSYDDAFDIWGQGTLVTVSS VL: DIQMTQSPSSLSASVGDRVTIACRVGQSIGTYLNWYQQKPGKAPKLLIYVASSLQSGVPSRFSGSGSGTEFTLTISSLQPEDFATYYCQQSASELLTFGRGTKVEIK :: 34800
ADT1-7-19 (antibody, IgG1, V domains shown, IgG1) VH: EVQLVESGGGLVKPGGSLRLSCAASGFTFSDYYMSWIRQAPGKGLEWVSYISSSGSTIYYADSVKGRFTISRDNAKNSLYLQMNSLRAEDTAVYYCARIDYEDAFDIWGQGTLVTVSS VL: DIQMTQSPSSLSASVGDRVTIACRAGQSIGTYLNWYQQKPGKAPKLLIYVASSLQSGVPSRFSGSGSGTEFTLTISSLQPEDFATYYCQQSASELLTFGRGTKVEIK :: 34700
